# target or test system: Recombinant human ASGPR (Homo sapiens, UniProt P07306)
# Construct: purchased Sino Biological Inc. (Beijing, China)
# Sequence (P07306 62-291 limits assumed): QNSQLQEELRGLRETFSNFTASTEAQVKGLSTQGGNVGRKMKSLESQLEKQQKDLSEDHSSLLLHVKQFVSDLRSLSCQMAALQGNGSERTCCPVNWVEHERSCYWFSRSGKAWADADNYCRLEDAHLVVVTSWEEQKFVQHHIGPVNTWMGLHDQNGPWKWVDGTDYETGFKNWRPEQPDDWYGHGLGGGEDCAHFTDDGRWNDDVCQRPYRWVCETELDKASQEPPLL
# protocol text: biochemical
# Type: binding
# test context: KD
The following molecules are shown together with reported Kd values.
// units = µM; emit number, no label

substance smiles	Kd / µM
CC(C)C[C@H](NC(=O)[C@H](Cc1ccccc1)NC(=O)CNC(=O)CNC(=O)[C@H](Cc1ccc(O)cc1)NC(=O)CCC(=O)N[C@@H]1O[C@H](CO)[C@H](O)[C@H](O)[C@H]1O)C(N)=O	219
CC(C)C[C@H](NC(=O)[C@H](Cc1ccccc1)NC(=O)CNC(=O)CNC(=O)[C@H](Cc1ccc(O)cc1)NC(=O)CCC(=O)N[C@@H]1O[C@H](CO)[C@@H](O[C@@H]2O[C@H](CO)[C@H](O[C@H]3O[C@H](CO)[C@H](O)[C@H](O)[C@H]3O)[C@H](O)[C@H]2O)[C@H](O)[C@H]1O)C(N)=O	91.1

Given the entry CC(C)C[C@H](NC(=O)[C@H](Cc1ccccc1)NC(=O)CNC(=O)CNC(=O)[C@H](Cc1ccc(O)cc1)NC(=O)CCC(=O)N[C@@H]1O[C@H](CO)[C@@H](O[C@@H]2O[C@H](CO)[C@H](O)[C@H](O)[C@H]2O)[C@H](O)[C@H]1O)C(N)=O , report its measured Kd.
211

---

The following compounds are shown together with reported Papp A→B values.
# protocol text: Caco-2 cell permeability assay in the presence of phlorizin (inhibitor for SGLT1)
# Assay type: in vitro ADME, human
# test context: Caco-2 cell monolayer, 200 µM compound + 100 µM phlorizin, n = 3; read-out: P app, Phlorizin

substance smiles	Papp A→B
CC(C)C[C@H](NC(=O)[C@H](Cc1ccccc1)NC(=O)CNC(=O)CNC(=O)[C@H](Cc1ccc(O)cc1)NC(=O)CCC(=O)N[C@@H]1O[C@H](CO)[C@@H](O[C@@H]2O[C@H](CO)[C@H](O)[C@H](O)[C@H]2O)[C@H](O)[C@H]1O)C(N)=O	0.711 ×10⁻⁶ cm/s

Given the entry CC(C)C[C@H](NC(=O)[C@H](Cc1ccccc1)NC(=O)CNC(=O)CNC(=O)[C@H](Cc1ccc(O)cc1)NC(=O)CCC(=O)N[C@@H]1O[C@H](CO)[C@H](O)[C@H](O)[C@H]1O)C(N)=O , report its measured Papp A→B.
1.18 ×10⁻⁶ cm/s

Given the entry CC(C)C[C@H](NC(=O)[C@H](Cc1ccccc1)NC(=O)CNC(=O)CNC(=O)[C@H](Cc1ccc(O)cc1)NC(=O)CCC(=O)N[C@@H]1O[C@H](CO)[C@@H](O[C@@H]2O[C@H](CO)[C@H](O[C@H]3O[C@H](CO)[C@H](O)[C@H](O)[C@H]3O)[C@H](O)[C@H]2O)[C@H](O)[C@H]1O)C(N)=O , report its measured Papp A→B.
0.561 ×10⁻⁶ cm/s

---

# target or test system: Recombinant human ASGPR (Homo sapiens)
# Construct: purchased Sino Biological Inc. (Beijing, China)
# protocol text: biochemical
# Assay type: binding
# test context: SPR, immobilized ASGPR, 25°C; read-out: KD
parameter measured: pKd
Note on units: pKd is unitless, being -log10 of a concentration expressed in mol/L.

Return pKd measured with Recombinant human ASGPR (Homo sapiens) given this compound: OC[C@H]1O[C@@H](O[C@H]2[C@H](O)[C@@H](O)[C@H](O)O[C@@H]2CO)[C@H](O)[C@@H](O)[C@H]1O [D-Lactose, reference compound]
4.72
